Values were extracted from patent US9518038B2.

System: human lung cancer cells A549 xenograft
Assay: In-vivo growth of A549 xenografts in nude mice
Design: species or system BALB/c nude mice
Settings: Mus musculus, ip, 60 mg/kg intraperitoneal once a day, vs DMSO solvent control, read-out: Curative effect (inhibition rate %) of tumor weight
Protocol: RPMI1640 and DMEM culture solutions: Hyclone Company; inactivated fetal bovine serum: Hyclone Company, preserved at −20° C.; trypsin: Amersco Company; and 0.4% trypan blue: Sigma Company; […]
measure: inhibition in vivo at 60 mg/kg (%)

• CCNC(=O)CC[C@@H](NC(=O)c1cc2cc(Br)ccc2oc1=O)C(=O)OCC = 63.6
• CCNC(=O)CCC(NC(=O)c1cc2ccccc2oc1=O)C(=O)OCC (stereo not drawn) = 53.6
• CCNC(=O)CCC(NC(=O)c1cc2ccccc2oc1=O)C(=O)OC (stereo not drawn) = 48.6

* * *

test system: human lymphoma cells U937; experiment: MTT growth inhibition, U937 cells; type: cell-based; details: Homo sapiens, U-937, 72 h after treatment, read-out: Drug concentration (IC50) at which 50% cancer cells survived
pIC50: −log10 of the molar value.
measure: pIC50

* CCNC(=O)CCC(NC(=O)c1cc2cc(F)ccc2oc1=O)C(=O)OCC (stereo in doubt) [Compound Ie] | 3.90
* CCNC(=O)CC[C@@H](NC(=O)c1cc2cc(Cl)cc(Cl)c2oc1=O)C(=O)OCC [Compound Ig] | 4.42
* CCNC(=O)CCC(NC(=O)c1cc2cc([N+](=O)[O-])ccc2oc1=O)C(=O)OCC (stereo in doubt) [Compound If] | 3.92
* CCNC(=O)CC[C@H](N)C(=O)OCC [Compound IIb, theanine ethyl ester] | 3.40
* O=C(O)c1cc2cc(Br)cc(Br)c2oc1=O [Compound IIIh, 6,8-dibromo-coumarin-3-carboxylic acid] | 3.41
* O=C(O)c1cc2cc(F)ccc2oc1=O [Compound IIIe, 6-fluorocoumarin-3-carboxylic acid] | 3.25
* CCNC(=O)CC[C@H](N)C(=O)OC [Compound IIa, theanine methyl ester] | 3.46
* O=C(O)c1cc2cc(Cl)ccc2oc1=O [Compound IIIc, 6-chlorocoumarin-3-carboxylic acid] | 3.30
